pIC50: −log10 of the molar value.
# pIC50 measurements, system: UniProtKB P00533
# Sequence (P00533 25-1210): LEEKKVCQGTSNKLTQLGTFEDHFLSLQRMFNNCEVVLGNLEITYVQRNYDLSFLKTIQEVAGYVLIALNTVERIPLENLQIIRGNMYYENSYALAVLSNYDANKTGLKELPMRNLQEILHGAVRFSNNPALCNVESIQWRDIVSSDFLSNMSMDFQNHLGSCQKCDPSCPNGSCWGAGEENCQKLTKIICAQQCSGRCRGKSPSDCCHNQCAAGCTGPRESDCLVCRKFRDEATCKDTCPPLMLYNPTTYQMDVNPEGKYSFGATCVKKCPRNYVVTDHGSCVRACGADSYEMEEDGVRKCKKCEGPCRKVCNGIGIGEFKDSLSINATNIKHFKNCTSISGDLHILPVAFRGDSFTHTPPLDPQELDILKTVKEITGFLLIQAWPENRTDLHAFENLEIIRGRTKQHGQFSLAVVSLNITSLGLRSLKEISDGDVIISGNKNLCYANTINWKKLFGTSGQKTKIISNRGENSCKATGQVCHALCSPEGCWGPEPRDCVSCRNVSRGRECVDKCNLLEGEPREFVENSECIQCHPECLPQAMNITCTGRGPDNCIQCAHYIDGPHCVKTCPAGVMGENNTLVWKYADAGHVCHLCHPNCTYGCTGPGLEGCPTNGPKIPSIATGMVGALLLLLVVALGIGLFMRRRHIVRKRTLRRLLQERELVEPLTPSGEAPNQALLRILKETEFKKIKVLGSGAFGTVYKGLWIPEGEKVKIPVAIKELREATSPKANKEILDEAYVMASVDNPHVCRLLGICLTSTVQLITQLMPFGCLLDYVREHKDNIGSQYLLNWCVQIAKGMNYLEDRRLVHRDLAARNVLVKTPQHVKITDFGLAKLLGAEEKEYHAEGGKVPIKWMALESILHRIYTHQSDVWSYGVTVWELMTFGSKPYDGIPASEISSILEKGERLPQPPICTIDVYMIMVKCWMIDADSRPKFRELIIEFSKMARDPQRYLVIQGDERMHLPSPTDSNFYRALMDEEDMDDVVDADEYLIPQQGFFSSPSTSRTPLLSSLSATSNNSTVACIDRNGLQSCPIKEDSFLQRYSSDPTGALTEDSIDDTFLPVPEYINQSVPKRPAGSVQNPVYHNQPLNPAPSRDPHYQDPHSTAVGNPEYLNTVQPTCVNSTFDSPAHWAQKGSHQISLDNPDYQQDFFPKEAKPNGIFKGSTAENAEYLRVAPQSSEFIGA
EXPERIMENTAL READOUT: pIC50

P: COc1ccc(CNc2ccc3nc(N)nc(Nc4ccccc4)c3c2)cc1 [10e]
Q: Cc1ccc(CNc2ccc3nc(N)nc(Nc4ccccc4)c3c2)cc1 [10d]
Between item P and item Q , which reported pIC50 is smaller? Your answer should be the label of the entry you select.
Q
(Q: 4.34, P: 5.45)
